Reference source for all entries: PubChem BioAssay (EPA / NIEHS)

test: BSK_hDFCGF_SRB: Viability Assessment in the BioMAP Diversity Plus: hDFCGF Assay (AID 2283061); settings: primary human foreskin fibroblasts;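 note: cells exposed to compound for 24 h before the read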
Calls of active or inactive are those of the source. Rule for the calls: active = hit-call score of the fitted dose curve at least 0.9, where 1 is the maximum; inactive = score below 0.9.
Labels: active, inactive

{"molecule": "CN(c1nccc(=O)[nH]1)C1CCN(c2nc3ccccc3n2Cc2ccc(F)cc2)CC1", "qualitativeLabel": "inactive"}
{"molecule": "CC(=O)c1c(C)c([N+](=O)[O-])c(C(C)(C)C)c([N+](=O)[O-])c1C", "qualitativeLabel": "inactive"}
{"molecule": "C[C@@H]1CCN(C(=O)[C@H](CCCN=C(N)N)NS(=O)(=O)c2cccc3c2NC[C@H](C)C3)[C@@H](C(=O)O)C1", "qualitativeLabel": "inactive"}
{"molecule": "c1ccc2cc(Nc3ccc(Nc4ccc5ccccc5c4)cc3)ccc2c1", "qualitativeLabel": "inactive"}
{"molecule": "CN(C)C(=S)SC(=S)N(C)C", "qualitativeLabel": "inactive"}
{"molecule": "CCC(C)c1cc([N+](=O)[O-])cc([N+](=O)[O-])c1OC(=O)OC(C)C (stereo unspecified)", "qualitativeLabel": "active"}
{"molecule": "CC(C)(N=C=O)c1cccc(C(C)(C)N=C=O)c1", "qualitativeLabel": "inactive"}
{"molecule": "O=C1OC[C@H](Cc2cccc(O)c2)[C@H]1Cc1cccc(O)c1", "qualitativeLabel": "inactive"}
{"molecule": "C1=CC2C3C=CC(C3)C2C1 (stereo unspecified)", "qualitativeLabel": "inactive"}
{"molecule": "O=CN1CCOCC1", "qualitativeLabel": "inactive"}
{"molecule": "COc1ccc(OC)c(N=Nc2c(O)ccc3ccccc23)c1", "qualitativeLabel": "active"}

###

read-out: Urokinase-type plasminogen activator receptor (uPAR), PLAUR (gene 5329); assay: BSK_BE3C_uPAR: BioMAP Diversity Plus: BE3C Assay for Urokinase-type plasminogen activator receptor (uPAR) Biomarker Activity (AID 2283039); conditions: primary human bronchial epithelial cells; actives raise or lower the signal
The source made the active and inactive calls. The calls were made as follows: active = hit-call score of the fitted dose curve at least 0.9, where 1 is the maximum; inactive = score below 0.9.
Possible outcomes: active, inactive

{"molecule": "c1ccc2cc(Nc3ccc(Nc4ccc5ccccc5c4)cc3)ccc2c1", "qualitativeLabel": "inactive"}
{"molecule": "CC(=O)c1c(C)c([N+](=O)[O-])c(C(C)(C)C)c([N+](=O)[O-])c1C", "qualitativeLabel": "inactive"}
{"molecule": "CC(C)(C)CC(C)(C)c1ccc(OCCOCC[N+](C)(C)Cc2ccccc2)cc1", "qualitativeLabel": "active"}
{"molecule": "CCCCCCC(CO)CCCC (stereo not given)", "qualitativeLabel": "inactive"}
{"molecule": "CN(C)C(=S)SC(=S)N(C)C", "qualitativeLabel": "active"}
{"molecule": "CC(=O)C1(C)CC2=C(CCCC2(C)C)CC1C (stereo not given)", "qualitativeLabel": "active"}
{"molecule": "C=CC(C)(O)CCC=C(C)C (stereo not given)", "qualitativeLabel": "inactive"}
{"molecule": "CCCCN(CCCC)C(=O)N(CCCC)CCCC", "qualitativeLabel": "active"}
{"molecule": "CCOC(=O)C(C#N)=C(c1ccccc1)c1ccccc1", "qualitativeLabel": "inactive"}
{"molecule": "COc1ccc(OC)c(N=Nc2c(O)ccc3ccccc23)c1", "qualitativeLabel": "active"}
{"molecule": "Clc1cc(Cl)c(-c2c(Cl)c(Cl)cc(Cl)c2Cl)cc1Cl", "qualitativeLabel": "active"}
{"molecule": "C1=CC2C3C=CC(C3)C2C1 (stereo not given)", "qualitativeLabel": "inactive"}
{"molecule": "Oc1c(Cl)cc(Cl)c(Cl)c1Cc1c(O)c(Cl)cc(Cl)c1Cl", "qualitativeLabel": "active"}
{"molecule": "COc1ccc(CCN2CCC(Nc3nc4ccccc4n3Cc3ccc(F)cc3)CC2)cc1", "qualitativeLabel": "inactive"}
{"molecule": "CCC(C)c1cc([N+](=O)[O-])cc([N+](=O)[O-])c1OC(=O)OC(C)C (stereo not given)", "qualitativeLabel": "active"}
{"molecule": "CS(=O)(=O)c1ccc(C2=C(c3ccccc3)C(=O)OC2)cc1", "qualitativeLabel": "inactive"}
{"molecule": "CCN(CC)C(=O)N(CC)CC", "qualitativeLabel": "inactive"}
{"molecule": "Cc1cc(CCC(=O)OCCOCCOCCOC(=O)CCc2cc(C)c(O)c(C(C)(C)C)c2)cc(C(C)(C)C)c1O", "qualitativeLabel": "inactive"}
{"molecule": "c1ccc(CCc2ccccc2)cc1", "qualitativeLabel": "active"}
{"molecule": "O=C1c2ccccc2C(=O)c2c(O)ccc(O)c21", "qualitativeLabel": "inactive"}
{"molecule": "CCCCCCCCCCCCCCCC(=O)OC/C=C(C)/C=C/C=C(C)/C=C/C1=C(C)CCCC1(C)C", "qualitativeLabel": "inactive"}
{"molecule": "O=C(Nc1ccc2c(O)c(N=Nc3ccc(N=Nc4ccc(S(=O)(=O)O)cc4)cc3)c(S(=O)(=O)O)cc2c1)c1ccccc1", "qualitativeLabel": "inactive"}
{"molecule": "CC(C)(N=C=O)c1cccc(C(C)(C)N=C=O)c1", "qualitativeLabel": "inactive"}
{"molecule": "C=C(C)C(=O)OCCOCCOCCOC(=O)C(=C)C", "qualitativeLabel": "inactive"}
{"molecule": "O=C1OC2(c3ccccc31)c1ccc(O)c(Br)c1Oc1c2ccc(O)c1Br", "qualitativeLabel": "inactive"}
{"molecule": "CC(=O)Nc1ccc(C(=O)CCl)cc1", "qualitativeLabel": "active"}
{"molecule": "CC(C=O)Cc1ccc(C(C)(C)C)cc1 (stereo not given)", "qualitativeLabel": "inactive"}
{"molecule": "IC(I)I", "qualitativeLabel": "inactive"}
{"molecule": "C=C(C)C(=O)OCC(CC)(COC(=O)C(=C)C)COC(=O)C(=C)C", "qualitativeLabel": "inactive"}
{"molecule": "CN(C)C(=O)Nc1ccc(Oc2ccc(Cl)cc2)cc1", "qualitativeLabel": "inactive"}
